Test system: Fibroblast
Test: Multiplex assay against human fibroblast
Format: toxicity, cell-based
Details: 12 h, 10 µM, compound concentration 10 uM, replicate 1
Value kind: Population Mitochondria Different-Phenotype (%)
Reply with just the number (in %).

*Q* Give the reported value of Population Mitochondria Different-Phenotype (%) for this record: COc1ccccc1CN[C@H]1C2CCN(CC2)[C@H]1C(c1ccccc1)c1ccccc1 [CP-96345]
*A* 44

*Q* Give the reported value of Population Mitochondria Different-Phenotype (%) for this record: CC(C)CC(=O)Nc1[nH]nc2c1CN(C(=O)C1CCN(C)CC1)C2(C)C [PHA-793887]
*A* 7

*Q* Give the reported value of Population Mitochondria Different-Phenotype (%) for this record: CC(C)(C)NC[C@H](O)COc1nsnc1N1CCOCC1 [TIMOLOL]
*A* 0

*Q* Give the reported value of Population Mitochondria Different-Phenotype (%) for this record: CNC(=O)Nc1ccc(-c2nc(N3CC4CCC(C3)O4)c3cnn(C4CCC5(CC4)OCCO5)c3n2)cc1
*A* 15

*Q* Give the reported value of Population Mitochondria Different-Phenotype (%) for this record: Cc1c[nH]c2nccc(Oc3c(F)cc(Nc4cc(Cl)nc(N)n4)cc3F)c12 [BAY-549]
*A* 0

*Q* Give the reported value of Population Mitochondria Different-Phenotype (%) for this record: O=c1[nH]c2ccccc2n1C1CCN(Cc2ccc(-c3[nH]c4cc5ncnc5cc4nc3-c3ccccc3)cc2)CC1
*A* 4

*Q* Give the reported value of Population Mitochondria Different-Phenotype (%) for this record: C[C@]12CC[C@@H]3c4ccc(O)cc4CC[C@H]3[C@@H]1CC[C@@H]2O [ESTRADIOL]
*A* 7

Shift focus to the following entry.
*Q* Give the reported value of Population Mitochondria Different-Phenotype (%) for this record: CCc1nn(CCCN2CCN(c3cccc(Cl)c3)CC2)c(=O)n1CCOc1ccccc1.Cl [NEFAZODONE HYDROCHLORIDE]
*A* 84
